- target: Biotin QP004.3 (biotin-PDL1-FC) (human) (UniProt Q9NZQ7)
- Sequence (Q9NZQ7 19-238 limits assumed): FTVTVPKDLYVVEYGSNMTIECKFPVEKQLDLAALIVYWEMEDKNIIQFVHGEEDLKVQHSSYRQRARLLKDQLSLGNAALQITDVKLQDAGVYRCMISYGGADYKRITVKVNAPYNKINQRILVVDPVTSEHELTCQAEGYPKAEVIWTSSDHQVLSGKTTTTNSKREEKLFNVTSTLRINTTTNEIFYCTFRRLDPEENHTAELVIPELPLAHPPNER
- assay-remarks: blocking ELISA, PD1-FC coated, biotin-PDL1-FC plus antibody; competitor PD1-FC
Measured ELISA reading at 33.3333 nM antibody, listed per entry.

binder	ELISA reading at 33.3333 nM antibody
QP325 (Fc fusion, not shown: a dimerising Fc or GST) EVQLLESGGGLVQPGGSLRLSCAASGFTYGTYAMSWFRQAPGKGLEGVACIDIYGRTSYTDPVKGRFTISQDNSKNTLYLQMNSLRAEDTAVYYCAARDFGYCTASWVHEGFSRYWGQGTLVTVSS	0.238
QP320 (Fc fusion, not shown: a dimerising Fc or GST) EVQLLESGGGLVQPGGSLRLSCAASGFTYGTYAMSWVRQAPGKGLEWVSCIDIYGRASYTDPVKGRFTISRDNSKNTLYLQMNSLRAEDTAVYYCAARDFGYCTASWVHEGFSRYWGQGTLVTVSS	1.02
QP1166 (Fc fusion, not shown: a dimerising Fc or GST) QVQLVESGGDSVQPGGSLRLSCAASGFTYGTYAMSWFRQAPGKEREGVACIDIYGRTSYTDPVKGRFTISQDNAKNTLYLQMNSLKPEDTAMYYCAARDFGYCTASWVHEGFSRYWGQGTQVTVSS	0.239
QP324 (Fc fusion, not shown: a dimerising Fc or GST) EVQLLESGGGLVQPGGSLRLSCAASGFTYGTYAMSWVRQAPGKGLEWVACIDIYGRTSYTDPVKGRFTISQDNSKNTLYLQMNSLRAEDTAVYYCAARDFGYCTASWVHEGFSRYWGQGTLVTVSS	0.737
